# merged literature set: pIC50 with 3',5'-cyclic-AMP phosphodiesterase 4B (Homo sapiens, UniProt Q07343)
pIC50: −log10 of the molar value.
Readout Name: pIC50

                                   compound  result_comparator  numeric_value
0  CCCOc1cc(-c2nc(C)cc(C3COB(O)C3)n2)ccc1OC (single isomer, unassigned)                  =           8.10
1  O=C(c1cc2cccnc2n1-c1cc(F)c(Cl)c(F)c1)N1CC(F)C1                  =           6.68
2  CCOC(=O)c1c(-c2ccc(OC)c(OC)c2)c(C)n2c1-c1cc(OC)c(OC)cc1CC2                  <           5.00
3  COc1cc(-c2cccc(C3COB(O)C3)c2)ccc1SC (centres unmarked)                  =           8.58
4  COc1ccc(-c2cc(C3COB(O)C3)ccn2)cc1OC1CCCC1 (single isomer, unassigned; enantiomer 2)                  =           8.53
5  COc1cc(C2COB(O)C2)nc(-c2ccc(OC)c(OC3CCCC3)c2)n1 (centres unmarked)                  =           8.58
6  CCCOc1cc(-c2nc(CO)cc(C3COB(O)C3)n2)ccc1OC (centres unmarked)                  =           7.99
7  CCCOc1cc(-c2nc(C3COB(O)C3)cc(C(F)(F)F)n2)ccc1OC (centres unmarked)                  =           8.66
